# study-target: UniProt:P21146
# Sequence (P21146 1-689): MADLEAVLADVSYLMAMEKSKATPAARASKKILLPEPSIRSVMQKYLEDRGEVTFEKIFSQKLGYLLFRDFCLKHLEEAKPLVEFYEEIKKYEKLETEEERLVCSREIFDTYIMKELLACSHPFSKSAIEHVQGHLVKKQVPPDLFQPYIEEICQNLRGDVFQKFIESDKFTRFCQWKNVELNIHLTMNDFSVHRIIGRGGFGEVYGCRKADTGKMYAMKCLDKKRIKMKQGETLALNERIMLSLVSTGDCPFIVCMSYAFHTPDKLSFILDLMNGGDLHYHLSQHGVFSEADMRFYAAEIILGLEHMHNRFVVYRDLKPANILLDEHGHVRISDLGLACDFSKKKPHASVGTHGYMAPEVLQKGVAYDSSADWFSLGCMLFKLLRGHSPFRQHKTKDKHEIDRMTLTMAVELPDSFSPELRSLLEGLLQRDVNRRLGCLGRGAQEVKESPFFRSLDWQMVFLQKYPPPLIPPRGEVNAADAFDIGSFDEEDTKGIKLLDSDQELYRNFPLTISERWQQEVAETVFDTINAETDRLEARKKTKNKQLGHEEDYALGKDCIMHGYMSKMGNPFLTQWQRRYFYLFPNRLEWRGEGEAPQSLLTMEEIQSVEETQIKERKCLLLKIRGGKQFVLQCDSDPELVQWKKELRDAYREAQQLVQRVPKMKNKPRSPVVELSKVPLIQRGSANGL
# assay-text: radiometric GRK2 inhibition assay (tubulin phosphorylation)
Kindly supply the reported IC50 values for the records listed here.

Task: Note down IC50 recorded for Cc1[nH]c(/C=C2\C(=O)Nc3ccc(C(=O)N[C@H](C)c4ccccc4)cc32)c(C)c1NC(=O)C1CO1 (some centres unmarked) [Compound 10l]
Result: > 250 µM

Task: Note down IC50 recorded for Cc1[nH]c(/C=C2\C(=O)Nc3ccc(C(=O)N[C@@H](c4ccccc4)C(C)C)cc32)c(C)c1NC(=O)CCl [Compound 9r]
Result: 190 µM
